Data origin: patent US7419997B2

Quick list: IC50 per entry.
test system: episomal HPV16 DNA in W12-20850 cells; experiment: W-12 cellular assay (episomal HPV-16 DNA, hybrid capture); type: cell-based, HPV16 (human papillomavirus); conditions: Human papillomavirus 16, 96 h, four days incubation, episomal HPV-16 DNA quantified by hybrid capture, inhibition relative to untreated control cells

{"compound": "COc1ccccc1C(=O)NC1CCCc2c1[nH]c1ccc(Br)cc21 (centres unmarked)", "unit.text": "nM", "sign.qualifier": ">", "IC50": 10000}
{"compound": "O=C(NC1CCCc2c1[nH]c1ccc(Br)cc21)c1ccncc1 (centres unmarked)", "unit.text": "nM", "sign.qualifier": "=", "IC50": 180}
{"compound": "O=C(NC1CCCc2c1[nH]c1ccc(Cl)cc21)c1ccccc1 (centres unmarked) [Example 36A]", "unit.text": "nM", "sign.qualifier": "=", "IC50": 60}
{"compound": "O=C(NC1CCCc2c1[nH]c1ccccc21)c1ccccc1 (centres unmarked)", "unit.text": "nM", "sign.qualifier": ">", "IC50": 10000}
{"compound": "O=S(=O)(NC1CCCc2c1[nH]c1ccc(Br)cc21)c1ccccc1F (centres unmarked)", "unit.text": "nM", "sign.qualifier": "=", "IC50": 51}

###

Reported IC50 values for the following compounds.
test system: episomal HPV16 DNA in W12-20850 cells; assay: W-12 cellular assay (episomal HPV-16 DNA, hybrid capture); format: cell-based, HPV16 (human papillomavirus); details: Human papillomavirus 16, 96 h, four days incubation, episomal HPV-16 DNA quantified by hybrid capture, inhibition relative to untreated control cells
reported.property: IC50 (nM)

{"compound": "O=C(NC1CCCc2c1[nH]c1ccc(Br)cc21)c1ccccc1F (stereo not drawn)", "study.target": "episomal HPV16 DNA in W12-20850 cells", "reported.property": "IC50", "sign.qualifier": "=", "measured.number": 9}
{"compound": "COc1ccc(NC(=O)NC2CCCc3c2[nH]c2ccc(Br)cc32)c(C)c1 (stereo not drawn)", "study.target": "episomal HPV16 DNA in W12-20850 cells", "reported.property": "IC50", "sign.qualifier": ">", "measured.number": 1000}
{"compound": "O=C(NC1CCCc2c1[nH]c1ccc(Br)cc21)c1cccc(F)c1 (stereo not drawn)", "study.target": "episomal HPV16 DNA in W12-20850 cells", "reported.property": "IC50", "sign.qualifier": "=", "measured.number": 14}
{"compound": "O=C(N[C@H]1CCCc2c1[nH]c1ccc(Br)cc21)c1ccccc1 [Example 14C]", "study.target": "episomal HPV16 DNA in W12-20850 cells", "reported.property": "IC50", "sign.qualifier": "=", "measured.number": 5000}
{"compound": "O=C(Nc1ccccc1)NC1CCCc2c1[nH]c1ccccc21 (stereo not drawn)", "study.target": "episomal HPV16 DNA in W12-20850 cells", "reported.property": "IC50", "sign.qualifier": ">", "measured.number": 10000}
{"compound": "Cc1ccc2[nH]c3c(c2c1)CCCC3NC(=O)Nc1ccccc1 (stereo not drawn)", "study.target": "episomal HPV16 DNA in W12-20850 cells", "reported.property": "IC50", "sign.qualifier": ">", "measured.number": 10000}
{"compound": "O=C(NC1CCCc2c1[nH]c1ccc(Br)cc21)c1cccnc1 (stereo not drawn)", "study.target": "episomal HPV16 DNA in W12-20850 cells", "reported.property": "IC50", "sign.qualifier": "=", "measured.number": 130}
{"compound": "O=C(NC1CCCc2c1[nH]c1ccc(Cl)cc21)c1ccccc1F (stereo not drawn) [Example 46A]", "study.target": "episomal HPV16 DNA in W12-20850 cells", "reported.property": "IC50", "sign.qualifier": "=", "measured.number": 12}
{"compound": "O=C(N[C@@H]1CCCc2c1[nH]c1ccc(Cl)cc21)c1ccccc1F [Example 46B]", "study.target": "episomal HPV16 DNA in W12-20850 cells", "reported.property": "IC50", "sign.qualifier": "=", "measured.number": 7}
